test system: MDA-MB-468 breast; assay: NCI tumour cell line growth inhibition, 48 h
I'd be grateful if you could share measured TGI for these entries.
Answer in µM, number only, no unit symbol.

Query string: TGI for COc1cc(/C=C/C(=O)N2CCC=CC2=O)cc(OC)c1OC ?
Result string: 4.7

Query string: TGI for O=C(Cc1csc2nc(-c3ccc(Cl)cc3)cn12)N/N=C/c1ccccc1O ?
Result string: 4.92

Query string: TGI for CC(=O)Oc1ccccc1C(=O)[Se]CC(=O)Nc1cccc(C(F)(F)F)c1 ?
Result string: 3.35

Query string: TGI for O=C(Nc1cccc(-n2cc(-c3ccncc3)c(-c3ccc(O)c(Cl)c3)n2)c1)c1cc(C(F)(F)F)cc(C(F)(F)F)c1 ?
Result string: 46

Query string: TGI for NC(=O)CC1(O)C=C(Br)C(=O)C(Br)=C1 ?
Result string: 7.22
